assayTarget: T1, human calcitonin receptor (human, UniProt P30988 25-474)
T1 sequence (looked up): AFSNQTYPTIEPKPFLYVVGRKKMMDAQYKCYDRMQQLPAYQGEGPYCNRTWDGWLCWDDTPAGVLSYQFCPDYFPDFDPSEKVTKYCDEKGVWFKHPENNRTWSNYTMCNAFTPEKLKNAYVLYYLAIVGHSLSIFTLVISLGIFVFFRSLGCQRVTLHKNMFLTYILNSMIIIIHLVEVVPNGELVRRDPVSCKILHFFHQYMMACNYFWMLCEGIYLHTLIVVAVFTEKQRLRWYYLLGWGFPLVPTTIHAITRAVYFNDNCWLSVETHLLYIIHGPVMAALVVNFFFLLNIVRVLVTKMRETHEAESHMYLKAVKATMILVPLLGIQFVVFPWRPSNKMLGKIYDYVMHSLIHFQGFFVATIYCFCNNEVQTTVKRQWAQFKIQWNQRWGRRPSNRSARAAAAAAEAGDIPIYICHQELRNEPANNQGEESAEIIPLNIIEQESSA
assayExplanation: cell-based or functional assay
// assign 1 if hCTR funct. EC50 falls strictly below 3 nM, else -1 (ties count as -1)

Input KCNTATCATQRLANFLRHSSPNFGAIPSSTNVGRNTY (C20 diacid-gGlu on the alpha amino group of the N-terminal residue; Cys2-Cys7 disulfide and C-terminal amide as in human amylin, also called compound 39) [N^α1-[(4S)-4-carboxy-4-(19-carboxynonadecanoylamino)butanoyl]-[Arg17,Pro21,Pro27,Arg34]-h-amylin] ; condition: hCTR funct. EC50 strictly below 3 nM. Does it hold?
1

Input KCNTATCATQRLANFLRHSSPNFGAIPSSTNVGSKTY (C20 diacid-gGlu on the alpha amino group of the N-terminal residue; Cys2-Cys7 disulfide and C-terminal amide as in human amylin, also called compound 34) [N^α1-[(4S)-4-carboxy-4-(19-carboxynonadecanoylamino)butanoyl]-[Arg17,Pro21,Pro27,Lys35]-h-amylin] ; condition: hCTR funct. EC50 strictly below 3 nM. Does it hold?
1

Input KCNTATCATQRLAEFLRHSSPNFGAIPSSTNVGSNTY (C20 diacid-gGlu on the alpha amino group of the N-terminal residue; Cys2-Cys7 disulfide and C-terminal amide as in human amylin, also called compound 9) [N^α1-[(4S)-4-carboxy-4-(19-carboxynonadecanoylamino)butanoyl]-[Glu14,Arg17,Pro21,Pro27]-h-amylin] ; condition: hCTR funct. EC50 strictly below 3 nM. Does it hold?
1

Input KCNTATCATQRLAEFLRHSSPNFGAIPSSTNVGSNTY (C20 diacid-gGlu-2xOEG on the alpha amino group of the N-terminal residue; Cys2-Cys7 disulfide and C-terminal amide as in human amylin, also called compound 19) ; condition: hCTR funct. EC50 strictly below 3 nM. Does it hold?
-1

Input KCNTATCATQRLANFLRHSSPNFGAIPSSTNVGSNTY (C20 diacid-gGlu-2xOEG on the alpha amino group of the N-terminal residue; Cys2-Cys7 disulfide and C-terminal amide as in human amylin, also called compound 24) ; condition: hCTR funct. EC50 strictly below 3 nM. Does it hold?
-1

Input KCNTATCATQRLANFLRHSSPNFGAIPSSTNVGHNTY (C20 diacid-gGlu on the alpha amino group of the N-terminal residue; Cys2-Cys7 disulfide and C-terminal amide as in human amylin, also called compound 40) [N^α1-[(4S)-4-carboxy-4-(19-carboxynonadecanoylamino)butanoyl]-[Arg17,Pro21,Pro27,His34]-h-amylin] ; condition: hCTR funct. EC50 strictly below 3 nM. Does it hold?
1
